- experiment.notes: logP determination by HPLC on reverse-phase column (C 18), EEC directive 79/831 Annex V.A8
- Format: physicochemical
- condition.set: reverse-phase HPLC column (C 18), pH 2.3, acidic range, pH 2.3; 0.1% aqueous phosphoric acid/acetonitrile gradient; 43° C.; values marked a)
- Description: In the acidic range, the determination is carried out at pH 2.3 using the mobile phases 0.1% aqueous phosphoric acid and acetonitrile; linear gradient from 10% acetonitrile to 90% acetonitrile. In the neutral range, the determination is carried out at pH 7.5 using the mobile phases 0.01 molar aqueous phosphate buffer solution and acetonitrile; linear gradient from 10% acetonitrile to 90% acetonitrile.
Below, each entry is listed alongside its reported chromatographic logP.
Output spec: single numeric token, no unit.

{"molecule": "FC(F)(F)c1ccccc1C1=NC(c2ccc(Br)cc2)CC1 (centres unmarked) [Example 2]", "chromatographic logP": 3.9}
{"molecule": "CC(C)(C)OC(=O)N1C(=O)CCC1c1ccc(F)c(F)c1 (centres unmarked) [III-12]", "chromatographic logP": 2.67}

Name the recorded chromatographic logP of the item Clc1ccccc1C1=NC(c2ccc(CCc3ccccc3)cc2)CC1 (centres unmarked) [Example 70] in your answer.
3.47

Complete the entry with chromatographic logP for Fc1cccc(F)c1C1=NC(c2ccc(OCc3ccc(OC(F)(F)F)cc3)cc2)CC1 (centres unmarked) [Example 109]
3.61

Indicate the recorded chromatographic logP value for this molecule: Fc1ccc(C2CCC(c3ccccc3Cl)=N2)cc1F (centres unmarked) [Example 49]
2.67

For CC(C)(C)OC(=O)N1C(=O)CCC1c1ccc(-c2ccc(OCc3ccc(Cl)cc3)cc2)cc1 (centres unmarked) [III-24] , write its chromatographic logP.
4.93

Determine from records and report chromatographic logP for Oc1ccc(C2CCC(c3ccccc3F)=N2)cc1 (centres unmarked) [Example 104]
0.59

Return chromatographic logP (reported value) for this molecule: CC(C)c1ccc(C2CCC(c3ccccc3Br)=N2)cc1 (centres unmarked) [Example 23]
3.06

Identify the reported chromatographic logP for the following entry. Fc1ccccc1C1=NC(c2ccc(-c3ccc(SC(F)(F)F)cc3)cc2)CC1 (centres unmarked) [Example 17]
3.45

Hello, please tell me recorded chromatographic logP for this one: FC(F)(F)Oc1ccc(-c2ccc(C3CCC(c4ccc(Br)cc4)=N3)cc2)cc1 (centres unmarked) [Example 101]
3.51

====

- experiment.notes: logP determination by HPLC on reverse-phase column (C 18), EEC directive 79/831 Annex V.A8
- Assay type: physicochemical
- condition.set: reverse-phase HPLC column (C 18), pH 2.3, acidic range, pH 2.3; 0.1% aqueous phosphoric acid/acetonitrile gradient; 43° C.; values marked a)
reported.metric: chromatographic logP

Solved entries (count: 9):
{"compound": "CCOc1cc(C(C)(C)C)ccc1C1CCC(=O)N1C(=O)OC(C)(C)C (stereo not shown)", "chromatographic logP": 4.4}
{"compound": "Cc1ccccc1C1=NC(c2ccc(Cl)cc2C)CC1 (stereo not shown)", "chromatographic logP": 2.06}
{"compound": "O=C1CCC(c2ccc(-c3ccc(OC(F)(F)F)cc3)cc2)N1 (stereo not shown)", "chromatographic logP": 2.96}
{"compound": "O=C1CCC(c2ccc(F)c(F)c2)N1 (stereo not shown)", "chromatographic logP": 1.43}
{"compound": "Fc1ccc(C2CCC(c3ccccc3F)=N2)cc1F (stereo not shown)", "chromatographic logP": 1.74}
{"compound": "O=C1CCC(c2ccc(Cl)cc2Cl)N1 (stereo not shown)", "chromatographic logP": 2.02}
{"compound": "Cc1ccc(C2CCC(=O)N2C(=O)OC(C)(C)C)cc1 (stereo not shown)", "chromatographic logP": 2.9}
{"compound": "Fc1ccc(C2CCC(c3ccc(OC(F)(F)F)cc3)=N2)cc1 (stereo not shown)", "chromatographic logP": 2.23}
{"compound": "COc1ccc(C2CCC(c3ccccc3F)=N2)cc1 (stereo not shown)", "chromatographic logP": 1.21}

Turning now to a further record.
Return the recorded chromatographic logP value; entry: Cc1cc(Cl)ccc1C1CCC(c2ccccc2Cl)=N1 (stereo not shown)
3.18

====

- experiment.notes: logP determination by HPLC on reverse-phase column (C 18), EEC directive 79/831 Annex V.A8
- Format: physicochemical
- condition.set: reverse-phase HPLC column (C 18), pH 2.3, acidic range, pH 2.3; 0.1% aqueous phosphoric acid/acetonitrile gradient; 43° C.; values marked a)
Response field label takes True when chromatographic logP is strictly below 2 and False in all other cases.

Worked set:
{"compound": "C=CCOc1ccc(C2CCC(c3ccccc3F)=N2)cc1 (stereo not shown)", "classification": "True"}
{"compound": "CC(C)(C)OC(=O)N1C(=O)CCC1c1ccc(-c2ccc(OCc3ccc(OC(F)(F)F)cc3)cc2)cc1 (stereo not shown)", "classification": "False"}
{"compound": "Fc1ccccc1C1=NC(c2ccc(-c3ccc(OC(F)(F)F)cc3)cc2)CC1 (stereo not shown)", "classification": "False"}
{"compound": "Cc1cc(Cl)ccc1C1CCC(c2cc(Cl)ccc2Cl)=N1 (stereo not shown)", "classification": "False"}
{"compound": "Cc1ccccc1C1=NC(c2ccc(C(C)C)cc2)CC1 (stereo not shown)", "classification": "False"}
{"compound": "Fc1ccc(F)c(C2=NC(c3ccc(-c4ccc(OC(F)(F)F)cc4)cc3)CC2)c1F (stereo not shown)", "classification": "False"}

chromatographic logP under 2? Item: O=C1CCC(c2ccc(-c3ccc(SC(F)(F)F)cc3)cc2)N1 (single isomer, unassigned; isomer 5) [V-2 para isomer]
False

Strictly below 2 in chromatographic logP? Cc1ccc(C2CCC(c3ccccc3F)=N2)c(Cl)c1 (stereo not shown)
False

Identify whether the compound Fc1cccc(F)c1C1=NC(c2ccccc2)CC1 (stereo not shown) records chromatographic logP below 2.
True

API: query returns whether the compound falls strictly under 2 in chromatographic logP. Query: Cc1ccc(C2CCC(c3ccccc3Cl)=N2)cc1Cl (stereo not shown)
False

Does the reported chromatographic logP of the following compound sit strictly below 2? CC(C)Oc1cc(-c2ccccc2)ccc1C1CCC(c2ccccc2Cl)=N1 (stereo not shown)
False

Find out if reported chromatographic logP for Clc1ccccc1C1=NC(c2cccc(Br)c2)CC1 (stereo not shown) is less than 2
False

Check if chromatographic logP falls below 2 for Fc1ccc(F)c(C2=NC(c3ccc(-c4ccc(SC(F)(F)F)cc4)cc3)CC2)c1F (stereo not shown) .
False

Item CC(=O)c1ccc(C2CCC(c3ccccc3Br)=N2)cc1 (stereo not shown) : chromatographic logP beneath 2, strictly?
False

Would you kindly verify if chromatographic logP of Cc1ccc(C2CCC(=O)N2)cc1Cl (stereo not shown) is strictly less than 2?
True

A record lists CCOc1cc(C(C)(C)C)ccc1C1CCC(=O)N1 (stereo not shown) . Is its chromatographic logP below 2?
False

chromatographic logP under 2? Item: Fc1ccc(C2CCC(c3ccc(Br)cc3)=N2)cc1 (stereo not shown)
True

Hello, I'm reviewing records and need to know if chromatographic logP of Clc1cccc(C2=NC(c3ccccc3)CC2)c1 (stereo not shown) is below 2. Could you check?
True

# strict comparison: is reported chromatographic logP < 2? input = COc1ccc(C2CCC(=O)N2C(=O)OC(C)(C)C)cc1 (stereo not shown)
False

Decide: chromatographic logP of CC(C)(C)OC(=O)N1C(=O)CCC1c1ccc(Cl)cc1Cl (stereo not shown) strictly below 2?
False

Does CC(C)c1ccc(C2CCC(c3ccccc3F)=N2)cc1 (stereo not shown) have chromatographic logP strictly under 2?
False

Identify whether the compound Fc1ccc(C2CCC(c3cc(Cl)ccc3Cl)=N2)cc1 (stereo not shown) records chromatographic logP below 2.
False

Is chromatographic logP of Fc1ccc(C2CCC(c3ccccc3Br)=N2)cc1F (stereo not shown) strictly below 2?
False

Confirm or reject: chromatographic logP of Cc1cc(-c2ccc(C3CCC(c4c(F)cccc4F)=N3)cc2)ccc1OC(F)(F)F (stereo not shown) lies strictly below 2
False

Is the reported chromatographic logP for Clc1ccc(C2CCC(c3ccccc3Cl)=N2)c(Cl)c1 (stereo not shown) strictly below 2?
False

Find out if reported chromatographic logP for O=C1CCC(c2ccc(-c3ccc(O)cc3)cc2)N1 (stereo not shown) is less than 2
True

Is chromatographic logP strictly under 2 for the entry Fc1ccccc1C1=NC(c2ccc(C3CCCCC3)cc2)CC1 (stereo not shown) ?
False

For this compound, is chromatographic logP lower than 2? Clc1ccccc1C1=NC(c2ccccc2)CC1 (stereo not shown)
True

Given the entry CC(C)c1ccc(C2CCC(=O)N2C(=O)OC(C)(C)C)cc1 (stereo not shown) , would its reported chromatographic logP be below 2?
False

Find out if reported chromatographic logP for Brc1ccc(C2=NC(c3ccccc3)CC2)cc1 (stereo not shown) is less than 2
True

Given FC(F)(F)Oc1ccc(-c2ccc(C3CCC(c4ccc(Cl)cc4Cl)=N3)cc2)cc1 (stereo not shown) , is recorded chromatographic logP strictly lower than 2?
False

====

- experiment.notes: logP determination by HPLC on reverse-phase column (C 18), EEC directive 79/831 Annex V.A8
- Type: physicochemical
- condition.set: reverse-phase HPLC column (C 18), pH 2.3, acidic range, pH 2.3; 0.1% aqueous phosphoric acid/acetonitrile gradient; 43° C.; values marked a)
reported.metric: chromatographic logP
A bare number is all that is needed in reply.

{"compound": "Cc1ccccc1C1=NC(c2ccc(-c3ccc(SC(F)(F)F)cc3)cc2)CC1 (centres unmarked)", "chromatographic logP": 3.25}
{"compound": "COc1ccc(C2CCC(c3ccccc3Cl)=N2)cc1 (centres unmarked)", "chromatographic logP": 1.66}
{"compound": "CCOC(=O)Oc1ccc(-c2ccc(C3CCC(c4ccccc4Cl)=N3)cc2)cc1 (centres unmarked)", "chromatographic logP": 3.14}

Provide only the value of recorded chromatographic logP for FC(F)(F)Oc1ccc(C2=NC(c3cccc(Cl)c3)CC2)cc1 (centres unmarked)
4.87

Give reported chromatographic logP value for COc1ccccc1C1=NC(c2ccc(-c3ccc(OC(F)(F)F)cc3)cc2)CC1 (centres unmarked)
2.55
